// median enrichment lookup, one value per entry
System: HEK293T
Assay: median enrichment of reporter reads in eGFP-reduced (low/intermediate) vs eGFP-high sorted cells (eGFP-extension fusion abundance) (ratio); higher = stronger loss of eGFP-fusion protein abundance (more destabilising extension)
The reply should be a number, written without any unit.

Some entries whose results are on file:
KISVETYTVSSQLLMVLMSLDLDTGLVPSLVSKCLILRVK [VHL] | 5.01
NLYSLESMSCVYSTIRNLILFLLLFLQKQKLILKSIIMGWGGGCPQDMQDFCRGQHRFWDCEAVSEGGQAVWMAGLMLFRIKC [SETD4] | 13.5

median enrichment for PVGKGGGLRGRGWMPRAPKPPFPFVSKGVRSELRKRASECVSLEGLGALWCYHLETCLMPPCLPMEDRLQELGPCGNLACFGG [MTA2] is 6.97

Record summary for YSFKSNRIIFHLAVVRSN [SS18L2] : reported median enrichment = 12.1

Summary for this sequence, RLAACLRNPAFFRR [MAPK10] : median enrichment is 12.2

Per the record, QVRLVQEHKLPPSPSPPPPGPGLKQPEDSPRGWLSPAAGSAFTWGGGAGLTLNPPPRQVGEGSHHSKCL [SLC2A4RG] has median enrichment of 2.26

// sample KCEACDKVSIWKSHLKDIGEFILERKLTNVRFLTRLGSDSHLEQHTGLHTGEKPYKCNECGKAFGKQSTLIHHQAIHGVGKLD [ZNF611] , its median enrichment was 6.92

According to the records, this sequence YRRLPRAPPHSMTRLWIPHCTSHSPLSAPSPPCWSCSHTPGTGLGHPLLPACVFLILGRPG [KRT71] displays median enrichment of 6.31

====

Reported median enrichment by item:
Test system: HEK293T
Experiment: median enrichment of reporter reads in eGFP-reduced (low/intermediate) vs eGFP-high sorted cells (eGFP-extension fusion abundance) (ratio); higher = stronger loss of eGFP-fusion protein abundance (more destabilising extension)

SAHSPLSQDMDLELRMGLS [IMP4] | 0.513

Note to self: median enrichment recorded for YEGPSRRATQATVPVPAFPTPAVAPPHPLPLFVPFDERLFTGVGWRDGLEGAQSIRLQGPSWEK was 2.44

Reported median enrichment of WNMKAEMQQTTSA [MNDA] : 0.66

Query RKCQEWKIFLILVQHEVVFRSLLSLIAILRFVGFYERLLLSGLKSFLNVCFLRSVIQLCEYFVTDLFQWLLV [HINT3] yields median enrichment of 11.3

====

Tested on: HEK293T;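 note: lentiviral eGFP-IRES-mCherry reporter pool sorted by FACS 96 h post-transduction, gated on mCherry-high cells, Illumina read counts normalized per million, median across four biological replicates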
Assay: median enrichment of reporter reads in eGFP-reduced (low/intermediate) vs eGFP-high sorted cells (eGFP-extension fusion abundance) (ratio); higher = stronger loss of eGFP-fusion protein abundance (more destabilising extension)
Measured median enrichment values are reported for all entries that follow.
Reply: number alone, nothing else.

Below, 10 substances whose answers are already recorded.
SLYRLRR [ST3GAL6] | 3.73
CPLNAANSASRTPNNSA [OR2AT4] | 0.496
RCDQVALGRDPRVFMRHLKLIKELRLELIWCSP [KCNC2] | 10.9
RPQMAGTCSSDERVLRRTPPSSVLEAGRLGSRRGQRHLLSVLGCKQLCVSGDTSHHVPGN [AIRE] | 7.82
KKKKKKKKK [Lys09] | 3.65
LSYQTTY [USP51] | 1.11
KGPPRAQGPGAPRGWGQTKTRQRGERRERAGAGPLGAELGASGGRRLMFYKL [IER5L] | 40.8
SDLVQHGNDSYRLIQQLTLRQVVLFQRPLFLPKPCYELNQMCQVFSGVLSNILFSCMGTSPLQMTMLMDLFIYLFKSLFS [IFNA8] | 8.28
SETAGFLLLFFLVVQLSPPPLLSCLLIWSFSLFSACHVFSGTYLHPPQHQFP [CNTNAP5] | 11.4
YSCVVKINMRKLPCNLNLGFPCNRN [IL23R] | 22.3

Form field, median enrichment with HEK293T, item WPSPPCQGQDPDFSKCGSHSAGTCRDMRGGCCHGRLPLHTRHWGSDPPGRWPFSPSS [CYSRT1] : 2.04

Measured on HEK293T, LPLKTVPLRDPKTLGIDTWASGRAQPWAGGLLRTQRCAWNHS [SLC4A3] has a documented median enrichment of 31

For RGCQLGRKRETRP [CCND2] on HEK293T, measured median enrichment was 0.783

# REFYRDAEKKERSEAIYAYGSRKR [CHCHD7] with HEK293T: median enrichment is 7.02

Entry YSPQAD [YAP1] ; assay system HEK293T; median enrichment recorded at 0.413

Test item RCRVFSSFFLLQEFVVT [MMP16] ; HEK293T; reported median enrichment was 3.48

Entry LILKLHPQ [BZW1] under HEK293T had median enrichment of 4.65

# value of median enrichment, HEK293T, item YCLSILVHGCFERYGRQSPGHN [MAGEC3] = 5.24
